ASSAY SYSTEM: (Rhodococcus erythropolis, UniProt P13448+P13449)
Sequence (P13448 2-207 limits assumed): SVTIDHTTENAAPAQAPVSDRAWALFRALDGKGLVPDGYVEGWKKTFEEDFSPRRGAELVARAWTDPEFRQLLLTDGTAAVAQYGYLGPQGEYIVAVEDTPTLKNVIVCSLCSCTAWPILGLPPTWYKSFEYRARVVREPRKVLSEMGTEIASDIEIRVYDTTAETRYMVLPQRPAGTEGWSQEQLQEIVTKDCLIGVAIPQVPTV
Sequence (P13449 1-212): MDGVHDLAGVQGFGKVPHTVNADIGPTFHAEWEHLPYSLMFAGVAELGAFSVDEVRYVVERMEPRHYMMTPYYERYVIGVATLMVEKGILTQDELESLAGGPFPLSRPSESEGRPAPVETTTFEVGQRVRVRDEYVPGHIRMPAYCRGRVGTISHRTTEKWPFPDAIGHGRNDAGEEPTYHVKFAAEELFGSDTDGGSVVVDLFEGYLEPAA
ASSAY DETAILS: Preservation of nitrile hydration activity of cell extract prepared as in Comparison Example 1, stabilizer added to extract
Type: biochemical, Corynebacterium strain N-774(FERM P-4446)
ASSAY SETUP: 48 h; 10 mg organic acid in 2.5 ml buffer + 2.5 ml extract; pH 6.5; 20° C. for 2 days; read-out: % Residual Activity (Organic Acid Added)
Quick reference: activity at 2000 µg/mL of the listed items.
Please state the figure in %; there is no need to write the unit.

• O=CC(=O)O = 72
• O=C(O)CO = 52
• O=C(O)CC(O)C(=O)O (stereo not drawn) = 43

# activity at 2000 µg/mL of "O=C(O)CC(=O)C(=O)O" = 68

# activity at 2000 µg/mL of O=C(O)C(O)CO (racemic) = 60

# activity at 2000 µg/mL of "CCCCC(=O)O" = 81

###

ASSAY SYSTEM: (Rhodococcus erythropolis, UniProt P13448+P13449)
ASSAY DETAILS: Preservation of nitrile hydration activity of cell extract prepared as in Comparison Example 1, stabilizer added to extract
Format: biochemical, Corynebacterium strain N-774(FERM P-4446)
ASSAY SETUP: 48 h; 10 mg amide in 2.5 ml buffer + 2.5 ml extract; pH 6.5; 20° C. for 2 days; read-out: % Residual Activity (Amide Added)
MEASURED METRIC: activity at 2000 µg/mL
The reply should read as a number followed by its unit.

* CCC(N)=O [Propionamide] | 83%

# activity at 2000 µg/mL of CCCCCC(N)=O [n-Capronamide] = 75%

# activity at 2000 µg/mL of NC(=O)CCO [β-Hydroxypropionamide] = 61%

# activity at 2000 µg/mL of CCCC(N)=O [n-Butyramide] = 90%

# activity at 2000 µg/mL of NCCC(N)=O [β-Aminopropionamide] = 52%

# activity at 2000 µg/mL of CC(O)C(N)=O (stereo not drawn) [Lactamide] = 50%

###

ASSAY SYSTEM: (Rhodococcus erythropolis, UniProt P13448+P13449)
ASSAY DETAILS: Preservation of nitrile hydration activity of cell extract prepared as in Comparison Example 1, stabilizer added to extract
Assay type: biochemical, Corynebacterium strain N-774(FERM P-4446)
ASSAY SETUP: 48 h, pH 6.5; read-out: % Residual Activity (Nitrile Added)
Quick reference: activity at 2000 µg/mL of the listed items.
The reply should read as a number followed by its unit.

# activity at 2000 µg/mL of "N#Cc1cccnc1" = 43%

# activity at 2000 µg/mL of CC(O)C#N (stereo not drawn) = 49%

# activity at 2000 µg/mL of "CCC#N" = 83%

###

ASSAY SYSTEM: (Rhodococcus erythropolis, UniProt P13448+P13449)
ASSAY DETAILS: Preservation of nitrile hydration activity of cell extract prepared as in Comparison Example 1, stabilizer added to extract
Format: biochemical, Corynebacterium strain N-774(FERM P-4446)
ASSAY SETUP: 48 h, pH 6.5; read-out: % Residual Activity (Nitrile Added)
Outcome: fulfilled for activity at 2000 µg/mL of at least 60%; not fulfilled for anything lower.

Record excerpt, results attached:
• CCCCC#N [n-Valeronitrile] = fulfilled
• N#CCCCCC#N [Adiponitrile] = fulfilled
• N#CCCN [β-Aminopropionitrile] = not fulfilled

Is activity at 2000 µg/mL for N#CCCC#N [Succinonitrile] at or above 60%?
fulfilled

###

Quick reference: activity at 2000 µg/mL of the listed items.
ASSAY SYSTEM: (Rhodococcus erythropolis, UniProt P13448+P13449)
Sequence (P13448 2-207 limits assumed): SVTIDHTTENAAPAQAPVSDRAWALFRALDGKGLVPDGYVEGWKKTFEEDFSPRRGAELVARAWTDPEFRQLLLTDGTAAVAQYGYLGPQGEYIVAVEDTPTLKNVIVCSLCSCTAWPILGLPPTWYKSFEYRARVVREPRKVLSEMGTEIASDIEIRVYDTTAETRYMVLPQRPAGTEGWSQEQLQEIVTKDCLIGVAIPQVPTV
Sequence (P13449 1-212): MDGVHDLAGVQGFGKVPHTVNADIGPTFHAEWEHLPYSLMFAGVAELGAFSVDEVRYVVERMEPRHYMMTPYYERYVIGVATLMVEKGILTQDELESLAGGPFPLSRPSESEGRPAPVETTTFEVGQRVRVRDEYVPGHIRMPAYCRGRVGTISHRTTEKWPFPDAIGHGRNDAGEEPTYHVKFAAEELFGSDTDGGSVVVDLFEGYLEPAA
ASSAY DETAILS: Preservation of nitrile hydration activity of cell extract prepared as in Comparison Example 1, stabilizer added to extract
Assay type: biochemical, Corynebacterium strain N-774(FERM P-4446)
ASSAY SETUP: 48 h, pH 6.5; read-out: % Residual Activity (Organic Acid Added)
Please state the figure in %; there is no need to write the unit.

Previously resolved entries follow.
• CCCCCC(=O)O = 78
• O=C(O)CCl = 39
• O=C(O)c1ccccc1 = 48

Form: item "C=CC(=O)O" ; test system (Rhodococcus erythropolis, UniProt P13448+P13449); activity at 2000 µg/mL: 53

Form: item "C=C(C)C(=O)O" ; test system (Rhodococcus erythropolis, UniProt P13448+P13449); activity at 2000 µg/mL: 59

###

ASSAY SYSTEM: (Rhodococcus erythropolis, UniProt P13448+P13449)
ASSAY DETAILS: Preservation of nitrile hydration activity of cell extract prepared as in Comparison Example 1, stabilizer added to extract
Assay type: biochemical, Corynebacterium strain N-774(FERM P-4446)
ASSAY SETUP: 48 h, pH 6.5, read-out: % Residual Activity (Organic Acid Added)
MEASURED METRIC: activity at 2000 µg/mL
The reply should read as a number followed by its unit.

Previously resolved entries follow.
* CC(=O)O | 55%
* CC(C)C(=O)O | 83%
* O=C(O)CCC(=O)O | 59%
* O=CO | 48%
* CCC(=O)O | 78%

# activity at 2000 µg/mL of "NCCC(=O)O" = 45%

###

ASSAY SYSTEM: (Rhodococcus erythropolis, UniProt P13448+P13449)
Sequence (P13448 2-207 limits assumed): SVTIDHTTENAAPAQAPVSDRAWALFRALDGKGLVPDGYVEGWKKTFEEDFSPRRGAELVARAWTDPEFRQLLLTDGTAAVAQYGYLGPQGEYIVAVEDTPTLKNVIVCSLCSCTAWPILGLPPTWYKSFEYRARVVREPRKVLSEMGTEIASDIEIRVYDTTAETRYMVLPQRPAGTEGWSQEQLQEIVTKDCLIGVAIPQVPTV
Sequence (P13449 1-212): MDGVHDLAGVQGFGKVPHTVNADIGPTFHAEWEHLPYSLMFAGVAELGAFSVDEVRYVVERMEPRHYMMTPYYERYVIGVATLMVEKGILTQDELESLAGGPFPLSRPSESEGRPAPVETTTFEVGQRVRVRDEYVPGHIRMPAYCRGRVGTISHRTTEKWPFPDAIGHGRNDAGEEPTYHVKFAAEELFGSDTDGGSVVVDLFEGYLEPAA
ASSAY DETAILS: Preservation of nitrile hydration activity of cell extract prepared as in Comparison Example 1, stabilizer added to extract
Type: biochemical, Corynebacterium strain N-774(FERM P-4446)
ASSAY SETUP: 48 h; 10 mg amide in 2.5 ml buffer + 2.5 ml extract; pH 6.5; 20° C. for 2 days; read-out: % Residual Activity (Amide Added)
Threshold-based label: activity at 2000 µg/mL under 60% gives Y, activity at 2000 µg/mL not under 60% gives N.

Record excerpt, results attached:
* NCC(N)=O [Glycine amide] | Y
* NC(=O)CCCl [β-Chloropropionamide] | N
* NC(=O)CCC(N)=O [Succindiamide] | N
* C=C(C)C(N)=O [Methacrylamide] | N

Is 60% strictly greater than the compound's reported activity at 2000 µg/mL? compound: CCCCC(N)=O [n-Valeramide]
N

Is 60% strictly greater than the compound's reported activity at 2000 µg/mL? compound: NC(=O)c1ccccc1 [Benzamide]
Y

Is 60% strictly greater than the compound's reported activity at 2000 µg/mL? compound: CC(C)C(N)=O [Isobutyramide]
N

Is 60% strictly greater than the compound's reported activity at 2000 µg/mL? compound: CC(N)=O [Acetamide]
Y

Is 60% strictly greater than the compound's reported activity at 2000 µg/mL? compound: NC(=O)CC(N)=O [Malondiamide]
Y
